assay: chemical genetic growth profiling, strain panel (AID 1159580);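 also: tested at 20 µM; growth read once vehicle control cultures reached saturation at 30 °C; 1 = growth at the plate median or of vehicle wells; lower values mean less growth of the strain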; settings: S. cerevisiae deletion strains, growth OD, locus YPR135W, strain CTF4, stronger effect = lower value
In all, about 5,500 compounds went through this assay and about 2,000 (36%) were called active. Inconclusive results (about 18%) are left out. The list shows a part of the results.
measuredAttribute: normalized growth
Reply briefly: the number, and no unit.

Name the recorded normalized growth for "N#CCC(=O)N(Cc1ccccc1F)C(=O)NC1CCCCC1" .
0.866

Name the recorded normalized growth for "Cn1c(Sc2ccc(C(F)(F)F)cc2[N+](=O)[O-])nnc1C(F)(F)F" .
1.05

Name the recorded normalized growth for "O=C(NNC(=O)c1ccc[nH]1)Nc1cc(Cl)cc(Cl)c1" .
1

Name the recorded normalized growth for "Cc1cc(NC(=O)Nc2cccc(C(F)(F)F)c2)n(C)n1" .
1.08

Name the recorded normalized growth for "O=[N+]([O-])c1cc(C(F)(F)F)ccc1Sc1ccc(Cl)cc1" .
0.97

Name the recorded normalized growth for "Cn1nccc1NS(=O)(=O)c1ccc(C(C)(C)C)cc1" .
0.929

Name the recorded normalized growth for "COc1ccccc1NC(=S)NCCc1ccc(OC)c(OC)c1" .
1.04

Name the recorded normalized growth for "Nc1ccc(Sc2cc(Cl)ccc2Cl)nc1" .
0.497

Name the recorded normalized growth for Cc1ccc(NC(=S)C(C#N)C(=O)N2CCCC2)c(C)c1 (configuration not stated) .
1.04

Name the recorded normalized growth for "COc1ccccc1C1CCN(c2ncnc3scc(-c4ccccc4)c23)CC1" .
1.02

Name the recorded normalized growth for "O=C(NNC(=S)Nc1cccc(Cl)c1)c1cccnc1" .
0.893

Name the recorded normalized growth for C=CC1CN2CCC1CC2C(OC(C)=O)c1ccnc2ccc(OC)cc12 (configuration not stated) .
1

====

assay: chemical genetic growth profiling, strain panel (AID 1159580); settings: S. cerevisiae deletion strains, growth OD, locus YKL067W, strain YNK1
In all, about 5,500 compounds went through this assay and about 2,000 (36%) were called active. Another 18% or so got no clear call; they are omitted. Rule as the data show it: active = normalized growth mostly below about 0.91 (no sharp cut-off); inconclusive = no clear call, values can overlap the other calls; inactive = mostly above about 0.92. This is one part of the list.
I would appreciate it if you answered using one of these outcomes: y (active), n (inactive)

Recorded call for CC1SC(c2cccnc2)N(c2ccc(Cl)cc2)C1=O (stereo unspecified) ?
y

Recorded call for CC1SC(c2cccnc2)N(c2ccc(F)cc2F)C1=O (stereo unspecified) ?
n

Recorded call for "CC(C)c1cccc(C(C)C)c1OC(=O)NC(=O)c1c(Cl)cccc1Cl" ?
n

Recorded call for "O=C(NCc1ccc2c(c1)OCO2)c1cc2ccccc2s1" ?
y

Recorded call for "Cc1cc(C)c2cc(C(=O)NCCNc3ccc(C(F)(F)F)cn3)[nH]c2c1" ?
y

Recorded call for "Cn1ncc(-c2nc(-c3ccc(Cl)cc3)cs2)c1N" ?
n

Recorded call for CCOC(=O)C(NC(=O)c1cccc(Cl)c1)(Nc1nc2ccccc2s1)C(F)(F)F (stereo unspecified) ?
n

Recorded call for "CC(C)OC(=O)Nc1cc(Cl)cc(Cl)c1" ?
n

Recorded call for "Cc1csc2ncnc(N3CCN(C(=S)Nc4ccc(C(F)(F)F)cc4)CC3)c12" ?
n

Recorded call for "Cc1cc(N=Cc2cc(Cl)cc(Cl)c2O)no1" ?
y

Recorded call for "Cc1oc(C(C)(C)C)cc1-c1cc(NC(=O)c2ccccc2)n[nH]1" ?
n

Recorded call for "NNC(=O)c1oc2nc(-c3ccccc3)cc(-c3ccccc3)c2c1N" ?
n

Recorded call for "S=C(NCCc1csc2ccccc12)Nc1ccc(Cl)cc1" ?
n

Recorded call for "Cc1cc2nc3c(Cl)c(O)c4ccccc4c3nc2cc1C" ?
n

Recorded call for C=CCC1C(=O)N(S(=O)(=O)c2ccc(Cl)cc2)N=C1CCC (stereo unspecified) ?
n

Recorded call for "COC(=S)Nc1cc(Cl)cc(Cl)c1" ?
y

Recorded call for "O=[N+]([O-])c1ccc(NCc2ccc(Cl)c(Cl)c2)nc1" ?
n

Recorded call for "COc1ccc(OC)c2nc3c(nc12)C(=O)c1ccccc1-3" ?
n

Recorded call for "N/C(=N/OCc1c(F)cccc1Cl)c1ccc(Cl)cc1" ?
n

Recorded call for "O=[N+]([O-])c1ccc(Sc2ccccc2)c([N+](=O)[O-])c1" ?
y

Recorded call for "Cn1cc(Br)c(-c2cccc(NS(=O)(=O)c3ccc(Cl)cc3)c2)n1" ?
n

Recorded call for "O=[N+]([O-])c1ccc(Sc2ccccc2)cc1O" ?
n

Recorded call for "O=[N+]([O-])c1cc(C(F)(F)F)ccc1Sc1n[nH]c(-c2cc(Cl)cc(Cl)c2)n1" ?
y

Recorded call for "COC(=O)c1cc([N+](=O)[O-])ccc1S(=O)(=O)Cc1ccc(Cl)cc1" ?
n

Recorded call for "O=C(Nc1ccccc1Sc1ccc(C(F)(F)F)cc1[N+](=O)[O-])C(Cl)Cl" ?
n

Recorded call for "COC(=O)c1cc(I)c(OC(C)=O)c(I)c1" ?
n

Recorded call for "CC(=O)c1ccc(Sc2ccccc2)c([N+](=O)[O-])c1" ?
n

Recorded call for "O=C(Nc1ccc(F)cc1)c1cc(Br)ccc1O" ?
n

Recorded call for "O=C(Nc1cc(Cl)cc(Cl)c1)c1cc(Cl)ccc1O" ?
n

Recorded call for "O=S(=O)(Nc1cc(C(F)(F)F)cc(C(F)(F)F)c1)c1ccc(Cl)s1" ?
n

Recorded call for "COc1ccc(Oc2ccc([N+](=O)[O-])cc2C(=O)O/N=C(/N)c2ccc(C(F)(F)F)cc2)cc1" ?
n

Recorded call for "S=C(NCc1cccs1)Nc1cc(Cl)cc(Cl)c1" ?
n

Recorded call for "CC(C)Sc1c(Cl)cccc1NC(=O)Nc1cccc(C(F)(F)F)c1" ?
n

Recorded call for "FC(F)(F)c1c2c(nc3cc(-c4ccco4)nn13)CCC2" ?
n

Recorded call for "COC(=O)c1sccc1S(=O)(=O)Nc1cc(C(F)(F)F)cc(C(F)(F)F)c1" ?
n

Recorded call for COc1cc(C2CC(=S)Nc3ccccc3S2)cc(OC)c1OC (stereo unspecified) ?
n

====

test: chemical genetic growth profiling, strain panel (AID 1159580);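 also: tested at 20 µM; growth read once vehicle control cultures reached saturation at 30 °C; 1 = growth at the plate median or of vehicle wells; lower values mean less growth of the strain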; settings: S. cerevisiae deletion strains, growth OD, locus YER123W, strain YCK3, stronger effect = lower value
Out of some 5,500 compounds screened, about 2,000 (36%) were called active. Not shown: some 18% with an inconclusive outcome. This is one part of the list.
Exercise: state measured normalized growth for each of the molecules provided.
Reply briefly: the number, and no unit.

Name the recorded normalized growth for "FC(F)(F)c1ccncc1-c1nc(-c2ccc(Cl)cc2)cs1" .
0.852

Name the recorded normalized growth for C=CCC1C(=O)N(S(=O)(=O)c2ccc(Cl)cc2)N=C1CCC (stereo not given) .
0.961

Name the recorded normalized growth for "COC(=O)c1sccc1S(=O)(=O)Nc1cc(C(F)(F)F)cc(C(F)(F)F)c1" .
0.936

Name the recorded normalized growth for "O=S(=O)(Nc1cc(C(F)(F)F)cc(C(F)(F)F)c1)c1ccc(Cl)s1" .
0.622

Name the recorded normalized growth for "Cn1ncc(-c2nc(-c3ccc(Cl)cc3)cs2)c1N" .
0.921

====

experiment: chemical genetic growth profiling, strain panel (AID 1159580);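 also: tested at 20 µM; growth read once vehicle control cultures reached saturation at 30 °C; 1 = growth at the plate median or of vehicle wells; lower values mean less growth of the strain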; settings: S. cerevisiae deletion strains, growth OD, locus YGL240W, strain doc1, stronger effect = lower value
The campaign covered roughly 5,500 compounds. About 2,000 (36%) were called active. Another 18% or so got no clear call; they are omitted. The list shows a part of the results.
Exercise: state measured normalized growth for each of the molecules provided.
Reply briefly: the number, and no unit.

Name the recorded normalized growth for CC(=O)Oc1c(C)c(C)c2c(c1C)CCC(C)(CCCC(C)CCCC(C)CCCC(C)C)O2 (stereo unspecified) .
1

Name the recorded normalized growth for CC(=CC1CCC(C)C2C1=C(C)CC2O)C(=O)O (stereo unspecified) .
1.02

Name the recorded normalized growth for "CC1=C(C(=O)O)N2C(=O)[C@@H](NC(=O)[C@@H](N)c3ccc(O)cc3)[C@H]2SC1" .
1.03

Name the recorded normalized growth for "CCCCN(CC)c1c([N+](=O)[O-])cc(C(F)(F)F)cc1[N+](=O)[O-]" .
1.02

Name the recorded normalized growth for "O=C(O)[C@H]1/C(=C/CO)O[C@@H]2CC(=O)N21" .
1.01

Name the recorded normalized growth for CC(NC(C)(C)C)C(=O)c1cccc(Cl)c1 (stereo unspecified) .
1.02

Name the recorded normalized growth for "O=C(O)CC[N+](=O)[O-]" .
1.04

Name the recorded normalized growth for "COc1cc(Cc2cnc(N)nc2N)cc(OC)c1OC" .
1.01

Name the recorded normalized growth for "CCCN(CCC)c1c([N+](=O)[O-])cc(C(F)(F)F)cc1[N+](=O)[O-]" .
1.05

Name the recorded normalized growth for "CC(=O)NS(=O)(=O)c1ccc(N)cc1" .
0.999

Name the recorded normalized growth for "COc1ccc(NS(=O)(=O)c2ccc(N)cc2)nn1" .
0.987

====

test: chemical genetic growth profiling, strain panel (AID 1159580);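 also: tested at 20 µM; growth read once vehicle control cultures reached saturation at 30 °C; 1 = growth at the plate median or of vehicle wells; lower values mean less growth of the strain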; settings: S. cerevisiae deletion strains, growth OD, locus YEL037C, strain rad23
The whole screen tested about 5,500 compounds, of which about 2,000 (36%) were called active. Not shown: some 18% with an inconclusive outcome. Cut-off read from the data, not from the text of the source: active = normalized growth mostly below about 0.91 (no sharp cut-off); inconclusive = no clear call, values can overlap the other calls; inactive = mostly above about 0.92. The list shows a part of the results.
I would appreciate it if you answered using one of these outcomes: active, inactive

Recorded call for CC(=O)O[C@H]1CC2CCC3C(CC[C@@]4(C)C3C[C@H]([N+]3(C)CCCCC3)[C@@H]4OC(C)=O)[C@@]2(C)C[C@@H]1N1CCCCC1 (some centres not stated) ?
inactive

Recorded call for CC(=O)OC[C@@]1(O)C[C@@]23CCC4c5ccoc5CC[C@]4(C)C2CC[C@@H]1C3 (some centres not stated) ?
inactive

Recorded call for "CC(=O)c1c(O)cc(O)cc1O" ?
inactive

Recorded call for CCCC(=O)Nc1ccc(OCC(O)CNC(C)C)c(C(C)=O)c1 (configuration not stated) ?
inactive

Recorded call for "CCC[C@@H]1C[C@@H](C(=O)N[C@H]([C@H]2O[C@H](SC)[C@H](O)[C@@H](O)[C@H]2O)[C@H](C)O)N(C)C1" ?
inactive

Recorded call for COC(=O)CC1C(C)(C(=O)c2ccoc2)CC2OCC34C(CC(=O)OC)C5(C)CC36OC3(C)OC1(C(OC(C)=O)C6(OC(C)=O)C5OC(=O)C(C)C)C24O3 (configuration not stated) ?
inactive

Recorded call for "C=CC[C@@H]1/C=C(\C)C[C@H](C)C[C@H](OC)[C@H]2O[C@@](O)(C(=O)C(=O)N3CCCC[C@H]3C(=O)O[C@H](/C(C)=C/[C@@H]3CC[C@@H](O)[C@H](OC)C3)[C@H](C)[C@@H](O)CC1=O)[C@H](C)C[C@@H]2OC" ?
inactive

Recorded call for NC(Cc1ccc(Cl)cc1)C(=O)O (configuration not stated) ?
inactive

Recorded call for CC(C)c1cc2c(c(O)c1O)[C@@]1(C(=O)O)CCCC(C)(C)C1CC2 (some centres not stated) ?
inactive

Recorded call for COCC1=C(C(=O)OC(C)OC(=O)OC(C)C)N2C(=O)[C@@H](NC(=O)/C(=N\OC)c3csc(N)n3)[C@H]2SC1 (some centres not stated) ?
inactive

Recorded call for "CON" ?
inactive

Recorded call for "Oc1cccc2cccnc12" ?
active

Recorded call for "CC[C@H]1OC(=O)[C@H](C)[C@@H](O[C@H]2C[C@@](C)(OC)[C@@H](O)[C@H](C)O2)[C@H](C)[C@@H](O[C@@H]2O[C@H](C)C[C@H](N(C)C)[C@H]2O)[C@](C)(O)C[C@@H](C)/C(=N/OCOCCOC)[C@H](C)[C@@H](O)[C@]1(C)O" ?
inactive

Recorded call for CC1(C)CC23C(=O)CCC(O)C2(C)CCC13 (configuration not stated) ?
inactive

Recorded call for "COc1ccc(NS(=O)(=O)c2ccc(N)cc2)nn1" ?
inactive

Recorded call for O=C(O)C1=C(CSc2nnnn2CS(=O)(=O)O)CS[C@@H]2C(NC(=O)[C@H](O)c3ccccc3)C(=O)N12 (some centres not stated) ?
inactive

Recorded call for "O=C(O)c1cccnc1C(=O)O" ?
inactive

This collection of values is drawn from PubChem BioAssay AID1159580.
